test system: NCI-H1437; test: relative viability (nuclei count vs DMSO), 5 days (fraction); higher = more cells survive; details: first compound 2 µM
endpointLabel: relative viability
Number, no unit, nothing else.

In the examples that follow, each entry is paired with its recorded relative viability.
Cc1csc(=NC2CCCCC2)n1/N=C/c1ccc(O)c(O)c1O [MIM1] + C[C@]1(O)C[C@@H](c2nc(-c3ccc4ccc(-c5ccccc5)nc4c3)c3c(N)nccn32)C1 [Linsitinib] (partner 1 µM) :: 1.05
CN1CCN(CCOc2cc(OC3CCOCC3)c3c(Nc4c(Cl)ccc5c4OCO5)ncnc3c2)CC1 [Saracatinib] + CS(=O)(=O)N1CCN(Cc2cc3nc(-c4cccc5[nH]ncc45)nc(N4CCOCC4)c3s2)CC1 [Pictilisib] (partner 1 µM) :: 0.393
CN1CCN(CCOc2cc(OC3CCOCC3)c3c(Nc4c(Cl)ccc5c4OCO5)ncnc3c2)CC1 [Saracatinib] + NC(=O)Nc1cc(-c2cccc(F)c2)sc1C(=O)N[C@H]1CCCNC1 [AZD7762] (partner 0.2 µM) :: 1.07

Okay, next one:
// fetch relative viability given entry CN1CCN(CCOc2cc(OC3CCOCC3)c3c(Nc4c(Cl)ccc5c4OCO5)ncnc3c2)CC1 [Saracatinib] + Cc1nc(NC(=O)N2CCC[C@H]2C(N)=O)sc1-c1ccnc(C(C)(C)C(F)(F)F)c1 [Alpelisib] (partner 2 µM) 0.895

----------
test system: NCI-H596; assay: relative viability (nuclei count vs DMSO), 5 days (fraction); higher = more cells survive; settings: first compound 0.2 µM
endpointLabel: relative viability
Number, no unit, nothing else.

CCNC(=O)c1noc(-c2cc(C(C)C)c(O)cc2O)c1-c1ccc(CN2CCOCC2)cc1 [Luminespib] + Nc1ncn([C@H]2C[C@H](O)[C@@H](CO)O2)c(=O)n1 [Decitabine] (partner 2 µM) :: 1.01

// fetch relative viability given entry CCNC(=O)c1noc(-c2cc(C(C)C)c(O)cc2O)c1-c1ccc(CN2CCOCC2)cc1 [Luminespib] + NC(=O)Nc1cc(-c2cccc(F)c2)sc1C(=O)N[C@H]1CCCNC1 [AZD7762] (partner 0.2 µM) 0.879

// fetch relative viability given entry Cc1csc(=NC2CCCCC2)n1/N=C/c1ccc(O)c(O)c1O [MIM1] + Nc1nc2[nH]cc(CCc3ccc(C(=O)N[C@@H](CCC(=O)O)C(=O)O)cc3)c2c(=O)[nH]1 [Pemetrexed] (partner 0.2 µM) 0.608

// fetch relative viability given entry Cc1csc(=NC2CCCCC2)n1/N=C/c1ccc(O)c(O)c1O [MIM1] + COc1cccc2cc(-c3nc([C@H]4CC[C@H](C(=O)O)CC4)n4ncnc(N)c34)[nH]c12 [OSI-027] (partner 0.5 µM) 0.622

----------
tested on: A-427; assay: relative viability (nuclei count vs DMSO), 5 days (fraction); higher = more cells survive; conditions: first compound 2 µM
endpointLabel: relative viability
Number, no unit, nothing else.

In the examples that follow, each entry is paired with its recorded relative viability.
CN1CCN(CCOc2cc(OC3CCOCC3)c3c(Nc4c(Cl)ccc5c4OCO5)ncnc3c2)CC1 [Saracatinib] + O=C(CCCCCCC(=O)Nc1ccccc1)NO [Vorinostat] (partner 1 µM) :: 0.863
CN1CCN(CCOc2cc(OC3CCOCC3)c3c(Nc4c(Cl)ccc5c4OCO5)ncnc3c2)CC1 [Saracatinib] + Cc1nc(Nc2ncc(C(=O)Nc3c(C)cccc3Cl)s2)cc(N2CCN(CCO)CC2)n1 [Dasatinib] (partner 0.075 µM) :: 0.777
CN1CCN(CCOc2cc(OC3CCOCC3)c3c(Nc4c(Cl)ccc5c4OCO5)ncnc3c2)CC1 [Saracatinib] + NC(=O)Nc1cc(-c2cccc(F)c2)sc1C(=O)N[C@H]1CCCNC1 [AZD7762] (partner 0.2 µM) :: 0.569

Okay, next one:
// fetch relative viability given entry CN1CCN(CCOc2cc(OC3CCOCC3)c3c(Nc4c(Cl)ccc5c4OCO5)ncnc3c2)CC1 [Saracatinib] + CC1(C)CCC(c2ccc(Cl)cc2)=C(CN2CCN(c3ccc(C(=O)NS(=O)(=O)c4ccc(N[C@H](CCN5CCOCC5)CSc5ccccc5)c(S(=O)(=O)C(F)(F)F)c4)cc3)CC2)C1 [Navitoclax] (partner 0.5 µM) 0.918

----------
tested on: UMC-11; test: relative viability (nuclei count vs DMSO), 5 days (fraction); higher = more cells survive; conditions: first compound 0.2 µM
The entries below come with measured relative viability values attached.
Number, no unit, nothing else.

Cc1csc(=NC2CCCCC2)n1/N=C/c1ccc(O)c(O)c1O [MIM1] + COc1cc2c(Oc3ccc(NC(=O)C4(C(=O)Nc5ccc(F)cc5)CC4)cc3F)ccnc2cc1OCCCN1CCOCC1 [Foretinib] (partner 0.25 µM) :: 1.07
Cc1csc(=NC2CCCCC2)n1/N=C/c1ccc(O)c(O)c1O [MIM1] + CCNC(=O)c1noc(-c2cc(C(C)C)c(O)cc2O)c1-c1ccc(CN2CCOCC2)cc1 [Luminespib] (partner 0.01 µM) :: 1.03
Cc1csc(=NC2CCCCC2)n1/N=C/c1ccc(O)c(O)c1O [MIM1] + O=C(c1cc(Cc2n[nH]c(=O)c3ccccc23)ccc1F)N1CCN(C(=O)C2CC2)CC1 [Olaparib] (partner 8 µM) :: 0.408
CCNC(=O)c1noc(-c2cc(C(C)C)c(O)cc2O)c1-c1ccc(CN2CCOCC2)cc1 [Luminespib] + Nc1ncn([C@H]2C[C@H](O)[C@@H](CO)O2)c(=O)n1 [Decitabine] (partner 2 µM) :: 0.23

// fetch relative viability given entry CCNC(=O)c1noc(-c2cc(C(C)C)c(O)cc2O)c1-c1ccc(CN2CCOCC2)cc1 [Luminespib] + O=C(c1cc(Cc2n[nH]c(=O)c3ccccc23)ccc1F)N1CCN(C(=O)C2CC2)CC1 [Olaparib] (partner 8 µM) 0.149

----------
system: NCI-H522; assay: relative viability (nuclei count vs DMSO), 5 days (fraction); higher = more cells survive; conditions: first compound 0.2 µM
The entries below come with measured relative viability values attached.
Number, no unit, nothing else.

In the examples that follow, each entry is paired with its recorded relative viability.
CCNC(=O)c1noc(-c2cc(C(C)C)c(O)cc2O)c1-c1ccc(CN2CCOCC2)cc1 [Luminespib] + Nc1nc2[nH]cc(CCc3ccc(C(=O)N[C@@H](CCC(=O)O)C(=O)O)cc3)c2c(=O)[nH]1 [Pemetrexed] (partner 0.2 µM) :: 0.353
Cc1csc(=NC2CCCCC2)n1/N=C/c1ccc(O)c(O)c1O [MIM1] + O=C(CCCCCCC(=O)Nc1ccccc1)NO [Vorinostat] (partner 1 µM) :: 0.858
Cc1csc(=NC2CCCCC2)n1/N=C/c1ccc(O)c(O)c1O [MIM1] + NC(=O)Nc1cc(-c2cccc(F)c2)sc1C(=O)N[C@H]1CCCNC1 [AZD7762] (partner 0.2 µM) :: 0.891
CN1CCN(CCOc2cc(OC3CCOCC3)c3c(Nc4c(Cl)ccc5c4OCO5)ncnc3c2)CC1 [Saracatinib] + O=C(c1cc(Cc2n[nH]c(=O)c3ccccc23)ccc1F)N1CCN(C(=O)C2CC2)CC1 [Olaparib] (partner 8 µM) :: 0.59
CN1CCN(CCOc2cc(OC3CCOCC3)c3c(Nc4c(Cl)ccc5c4OCO5)ncnc3c2)CC1 [Saracatinib] + CC(=O)Nc1cccc(-n2c(=O)n(C3CC3)c(=O)c3c(Nc4ccc(I)cc4F)n(C)c(=O)c(C)c32)c1 [Trametinib] (partner 0.02 µM) :: 0.745
CN1CCN(CCOc2cc(OC3CCOCC3)c3c(Nc4c(Cl)ccc5c4OCO5)ncnc3c2)CC1 [Saracatinib] + CC(=O)c1c(C)c2cnc(Nc3ccc(N4CCNCC4)cn3)nc2n(C2CCCC2)c1=O [Palbociclib] (partner 0.5 µM) :: 0.802
Cc1csc(=NC2CCCCC2)n1/N=C/c1ccc(O)c(O)c1O [MIM1] + Nc1ncn([C@H]2C[C@H](O)[C@@H](CO)O2)c(=O)n1 [Decitabine] (partner 2 µM) :: 0.625
CN1CCN(CCOc2cc(OC3CCOCC3)c3c(Nc4c(Cl)ccc5c4OCO5)ncnc3c2)CC1 [Saracatinib] + CCNC(=O)c1noc(-c2cc(C(C)C)c(O)cc2O)c1-c1ccc(CN2CCOCC2)cc1 [Luminespib] (partner 0.01 µM) :: 0.943

Enter recorded relative viability with NCI-H522 for Cc1csc(=NC2CCCCC2)n1/N=C/c1ccc(O)c(O)c1O [MIM1] + Cc1cc(Nc2cc(N3CCN(C)CC3)nc(Sc3ccc(NC(=O)C4CC4)cc3)n2)n[nH]1 [Tozasertib] (partner 0.1 µM) here. 0.622

Enter recorded relative viability with NCI-H522 for Cc1csc(=NC2CCCCC2)n1/N=C/c1ccc(O)c(O)c1O [MIM1] + CC(=O)Nc1cccc(-n2c(=O)n(C3CC3)c(=O)c3c(Nc4ccc(I)cc4F)n(C)c(=O)c(C)c32)c1 [Trametinib] (partner 0.02 µM) here. 0.727

----------
test system: PC-14; experiment: relative viability (nuclei count vs DMSO), 5 days (fraction); higher = more cells survive; conditions: first compound 0.8 µM
endpointLabel: relative viability
Number, no unit, nothing else.

In the examples that follow, each entry is paired with its recorded relative viability.
Nc1cccc2c1CN(C1CCC(=O)NC1=O)C2=O (stereo unspecified) [Lenalidomide] + CCNC(=O)c1noc(-c2cc(C(C)C)c(O)cc2O)c1-c1ccc(CN2CCOCC2)cc1 [Luminespib] (partner 0.01 µM) :: 0.191
Nc1cccc2c1CN(C1CCC(=O)NC1=O)C2=O (stereo unspecified) [Lenalidomide] + O=C(CCCCCCC(=O)Nc1ccccc1)NO [Vorinostat] (partner 1 µM) :: 0.713
Nc1cccc2c1CN(C1CCC(=O)NC1=O)C2=O (stereo unspecified) [Lenalidomide] + C[C@]1(O)C[C@@H](c2nc(-c3ccc4ccc(-c5ccccc5)nc4c3)c3c(N)nccn32)C1 [Linsitinib] (partner 1 µM) :: 0.988
Nc1cccc2c1CN(C1CCC(=O)NC1=O)C2=O (stereo unspecified) [Lenalidomide] + COc1cccc2cc(-c3nc([C@H]4CC[C@H](C(=O)O)CC4)n4ncnc(N)c34)[nH]c12 [OSI-027] (partner 0.5 µM) :: 0.853

// fetch relative viability given entry Nc1cccc2c1CN(C1CCC(=O)NC1=O)C2=O (stereo unspecified) [Lenalidomide] + CC1(C)CCC(c2ccc(Cl)cc2)=C(CN2CCN(c3ccc(C(=O)NS(=O)(=O)c4ccc(N[C@H](CCN5CCOCC5)CSc5ccccc5)c(S(=O)(=O)C(F)(F)F)c4)cc3)CC2)C1 [Navitoclax] (partner 0.5 µM) 1.02

// fetch relative viability given entry Nc1cccc2c1CN(C1CCC(=O)NC1=O)C2=O (stereo unspecified) [Lenalidomide] + Cc1cc(Nc2cc(N3CCN(C)CC3)nc(Sc3ccc(NC(=O)C4CC4)cc3)n2)n[nH]1 [Tozasertib] (partner 0.1 µM) 0.696

Entry source: the supplement of paper PMC10307832
